assay.procedure: Liver microsomes study, Phase I stability (HLM)
Type: in vitro ADME, human
applied.conditions: pH 7.4; human liver microsomes 0.5 mg/mL, 1 μM test article; read-out: HLM Clint
assay.readout: microsomal CLint at 1 μM (µL/min/mg)
The figure you give is taken to be in µL/min/mg; do not add the unit.

INSERT INTO assay_data (compound, measurement) VALUES
  ('Cc1cnc(Nc2cnn(C3CCN(C(=O)C4CC4)CC3)c2)nc1-c1ccc(C(=O)NCC#N)cc1 [Example 24]', 52.8),
  ('CC[C@@H](C#N)NC(=O)c1ccc(-c2nc(Nc3cnn(C4CCN(C)CC4)c3)ncc2Cl)cc1 [Example 88]', 22.8),
  ('Cc1cnc(Nc2cnn(C3CCOCC3)c2)nc1-c1ccc(C(=O)NCC#N)cc1 [Example 26]', 9.3);

Next up:
Request: // microsomal CLint at 1 μM lookup, key: Cc1cnc(Nc2cnn(C3CCN(CC(F)F)CC3)c2)nc1-c1ccc(C(=O)NCC#N)cc1 [Example 19]
Response: 33.7

====

assay.procedure: Liver microsomes study, Phase I stability (HLM)
Format: in vitro ADME, human
applied.conditions: pH 7.4; human liver microsomes 0.5 mg/mL, 1 μM test article; read-out: HLM Clint
I'd appreciate it if you marked entries t when microsomal CLint at 1 μM is lower than 20 µL/min/mg and f when it is not.

INSERT INTO assay_data (compound, label) VALUES
  ('Cc1cnc(Nc2cnn(C)c2)nc1-c1ccc(C(=O)N[C@@H](C)C#N)cc1', 't');

Request: Lab log: compare recorded microsomal CLint at 1 μM with 20 µL/min/mg; is it strictly lower for Cc1cnc(Nc2cnn(C3CCOCC3)c2)nc1-c1ccc(C(=O)N[C@@H](C)C#N)cc1 ?
Response: t

Request: Another compound: CC(=O)N1CCC(n2cc(Nc3ncc(C)c(-c4ccc(C(=O)NCC#N)cc4)n3)cn2)CC1
Response: t

Request: Another compound: C[C@@H](C#N)NC(=O)c1ccc(-c2nc(Nc3cnn(C4CCN(C)CC4)c3)ncc2Cl)cc1
Response: t

====

target.or.system: JAK1 (Homo sapiens)
Construct: purchased Carna Biosciences
Sequence (P23458 whole entry): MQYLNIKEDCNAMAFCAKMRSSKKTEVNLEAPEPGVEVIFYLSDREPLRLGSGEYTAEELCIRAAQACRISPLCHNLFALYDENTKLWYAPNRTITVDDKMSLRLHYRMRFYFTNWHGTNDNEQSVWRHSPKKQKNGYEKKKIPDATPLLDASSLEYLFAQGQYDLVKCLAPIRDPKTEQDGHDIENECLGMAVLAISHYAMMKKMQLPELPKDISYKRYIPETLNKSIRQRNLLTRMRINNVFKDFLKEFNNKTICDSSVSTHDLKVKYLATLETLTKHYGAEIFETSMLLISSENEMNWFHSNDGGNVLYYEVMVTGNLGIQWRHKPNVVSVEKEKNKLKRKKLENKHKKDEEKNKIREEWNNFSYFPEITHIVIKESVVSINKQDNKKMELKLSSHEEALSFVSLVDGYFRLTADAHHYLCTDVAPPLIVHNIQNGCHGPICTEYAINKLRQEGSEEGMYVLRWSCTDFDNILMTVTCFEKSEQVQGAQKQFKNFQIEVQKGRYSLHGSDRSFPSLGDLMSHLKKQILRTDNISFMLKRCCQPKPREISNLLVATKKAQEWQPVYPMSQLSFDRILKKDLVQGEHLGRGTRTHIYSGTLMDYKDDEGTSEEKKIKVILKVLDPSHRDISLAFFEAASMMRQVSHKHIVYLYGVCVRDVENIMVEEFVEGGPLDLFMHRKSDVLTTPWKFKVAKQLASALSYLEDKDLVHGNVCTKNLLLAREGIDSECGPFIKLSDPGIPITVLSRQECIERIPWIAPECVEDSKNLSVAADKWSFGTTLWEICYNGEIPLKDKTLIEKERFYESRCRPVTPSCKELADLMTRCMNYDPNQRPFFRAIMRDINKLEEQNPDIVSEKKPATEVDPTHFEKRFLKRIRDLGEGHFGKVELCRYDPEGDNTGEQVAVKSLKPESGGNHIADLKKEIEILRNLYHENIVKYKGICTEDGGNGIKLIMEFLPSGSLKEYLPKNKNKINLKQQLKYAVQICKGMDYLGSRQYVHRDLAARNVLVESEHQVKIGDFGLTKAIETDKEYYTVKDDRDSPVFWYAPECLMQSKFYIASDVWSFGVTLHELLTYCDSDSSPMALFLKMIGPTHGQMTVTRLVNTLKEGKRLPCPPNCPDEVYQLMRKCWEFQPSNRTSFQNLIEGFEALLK
assay.procedure: JAK1 microfluidic kinase assay (Caliper EZ Reader II, FAM labeled peptide substrate)
Assay type: biochemical
applied.conditions: read-out: IC50 JAK1 (5 nM) (1 m MATP); JAK1 5 nM, 1 mM ATP
assay.readout: pIC50
Entry type: numeric. Quantity: pIC50, the -log10 of concentration in molar units.

Request: Form entry - test system: JAK1 (Homo sapiens); read-out: pIC50; compound: Cc1cnc(Nc2cnn(C3CC(C)(C)OC(C)(C)C3)c2)nc1-c1ccc(C(=O)NCC#N)cc1 [Example 113]
Response: 7.98

====

assay.procedure: Mouse pharmacokinetic study (intravenous and oral)
Type: in vivo
applied.conditions: male, plasma, ICR mice, intravenous, 1 mg/kg, solution
assay.readout: half-life

Request: // half-life lookup, key: Cc1cnc(Nc2cnn(C3CC(C)(C)OC(C)(C)C3)c2)nc1-c1ccc(C(=O)NCC#N)cc1
Response: 7.8 min

====

Overview of recorded IC50 for various molecules
target.or.system: JAK2V617F (Homo sapiens, UniProt O60674, V617F)
Sequence (O60674 whole entry V617F): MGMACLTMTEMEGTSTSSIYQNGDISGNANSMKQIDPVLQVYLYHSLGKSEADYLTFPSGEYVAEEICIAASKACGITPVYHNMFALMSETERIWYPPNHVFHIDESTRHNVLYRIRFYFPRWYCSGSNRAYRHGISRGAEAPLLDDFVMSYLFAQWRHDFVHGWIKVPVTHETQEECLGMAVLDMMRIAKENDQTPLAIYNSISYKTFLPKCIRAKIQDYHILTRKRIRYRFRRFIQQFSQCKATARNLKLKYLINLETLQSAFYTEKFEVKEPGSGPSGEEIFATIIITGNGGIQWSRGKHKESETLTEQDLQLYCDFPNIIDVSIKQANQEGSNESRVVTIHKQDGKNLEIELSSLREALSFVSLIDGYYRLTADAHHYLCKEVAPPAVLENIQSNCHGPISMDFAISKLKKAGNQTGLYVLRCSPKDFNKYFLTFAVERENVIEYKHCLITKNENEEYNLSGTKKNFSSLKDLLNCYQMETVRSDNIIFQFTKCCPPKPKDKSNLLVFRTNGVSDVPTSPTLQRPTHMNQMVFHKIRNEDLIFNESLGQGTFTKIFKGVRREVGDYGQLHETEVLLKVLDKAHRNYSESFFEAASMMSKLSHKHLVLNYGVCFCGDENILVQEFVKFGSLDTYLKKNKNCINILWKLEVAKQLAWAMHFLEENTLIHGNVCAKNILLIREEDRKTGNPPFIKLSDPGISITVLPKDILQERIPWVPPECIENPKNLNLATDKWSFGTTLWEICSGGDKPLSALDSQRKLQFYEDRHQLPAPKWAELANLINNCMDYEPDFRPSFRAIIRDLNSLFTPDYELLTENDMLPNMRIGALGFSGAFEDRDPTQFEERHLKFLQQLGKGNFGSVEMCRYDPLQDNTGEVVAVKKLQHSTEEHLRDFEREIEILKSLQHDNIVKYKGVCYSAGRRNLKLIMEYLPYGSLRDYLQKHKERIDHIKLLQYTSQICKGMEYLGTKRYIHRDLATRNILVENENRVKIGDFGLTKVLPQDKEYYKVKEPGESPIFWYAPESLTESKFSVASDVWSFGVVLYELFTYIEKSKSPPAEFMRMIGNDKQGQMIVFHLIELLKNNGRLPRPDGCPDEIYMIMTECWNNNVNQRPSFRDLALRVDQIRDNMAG
assay.procedure: JAK2V617F microfluidic kinase assay (Caliper EZ Reader II, FAM labeled peptide substrate)
applied.conditions: JAK2V617F 2.5 nM, 1 mM ATP
The figure you give is taken to be in nM; do not add the unit.

INSERT INTO results (molecule, assay_readout, unit_info, measurement) VALUES
  ('CC(C)n1cc(Nc2ncc(Cl)c(-c3ccc(C(=O)N[C@@H](C)C#N)cc3)n2)cn1 [Example 228]', 'IC50', 'nM', 22),
  ('Cc1cnc(Nc2cnn(C3CC(F)(F)C3)c2)nc1-c1ccc(C(=O)N[C@@H](C)C#N)cc1 [Example 155]', 'IC50', 'nM', 1890),
  ('Cc1cnc(Nc2cnn(C3CC4CCC(C3)N4C(=O)C3CC3)c2)nc1-c1ccc(C(=O)NCC#N)cc1 (stereo not shown) [Example 64]', 'IC50', 'nM', 40.9);

Request: // IC50 lookup, key: Cc1cnc(Nc2cnn(C3CC3)c2)nc1-c1ccc(C(=O)NCC2(C#N)CC2)cc1 [Example 93]
Response: 102

Request: Another molecule: Cc1cnc(Nc2cnn(C3CCOC(C)C3)c2)nc1-c1ccc(C(=O)NCC#N)cc1 (stereo not shown) [Example 72]
Response: 33.6

Request: Another molecule: Cc1cnc(Nc2cnn(C3CCN(C(=O)C(C)(C)C)CC3)c2)nc1-c1ccc(C(=O)NCC#N)cc1 [Example 21]
Response: 3.55

Request: Another molecule: CC(C)(C#N)CNC(=O)c1ccc(-c2nc(Nc3cnn(C4CCOCC4)c3)ncc2Cl)cc1 [Example 80]
Response: 7.74

Request: Another molecule: C[C@H](C#N)NC(=O)c1ccc(-c2nc(Nc3cnn(C)c3)ncc2Cl)cc1 [Example 97]
Response: 147

Request: Another molecule: C[C@H](C#N)NC(=O)c1ccc(-c2nc(Nc3cnn(C4CCN(C)CC4)c3)ncc2F)cc1 [Example 63]
Response: 842

Request: Another molecule: COCCNC(=O)c1ccc(-c2nc(Nc3cnn(C)c3)ncc2C)cc1 [Example 6]
Response: 669

Request: Another molecule: N#CCNC(=O)c1ccc(-c2nc(Nc3cnn(C4CC4)c3)ncc2Cl)cn1 [Example 120]
Response: 131
